I'd appreciate it if you could supply EC50 values for the items below.
system: soluble guanylate cyclase (sGC) (Homo sapiens (Human), UniProt Q02108+Q02153)
Sequence (Q02153 whole entry): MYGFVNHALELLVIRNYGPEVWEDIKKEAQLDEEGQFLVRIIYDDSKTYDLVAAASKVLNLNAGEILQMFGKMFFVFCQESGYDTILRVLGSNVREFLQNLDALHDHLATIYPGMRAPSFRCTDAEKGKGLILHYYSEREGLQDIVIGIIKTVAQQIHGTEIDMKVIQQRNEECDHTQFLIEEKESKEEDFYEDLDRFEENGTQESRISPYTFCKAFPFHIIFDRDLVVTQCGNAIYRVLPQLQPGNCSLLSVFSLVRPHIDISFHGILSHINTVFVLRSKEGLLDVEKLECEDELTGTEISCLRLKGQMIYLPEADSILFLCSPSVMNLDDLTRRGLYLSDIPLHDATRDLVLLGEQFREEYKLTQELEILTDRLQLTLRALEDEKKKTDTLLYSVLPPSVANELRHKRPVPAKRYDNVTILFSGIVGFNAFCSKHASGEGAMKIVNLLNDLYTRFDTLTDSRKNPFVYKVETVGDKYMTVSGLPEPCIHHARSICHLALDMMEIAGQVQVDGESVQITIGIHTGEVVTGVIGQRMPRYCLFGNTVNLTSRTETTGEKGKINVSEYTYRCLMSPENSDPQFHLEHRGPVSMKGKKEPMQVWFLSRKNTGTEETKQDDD
Sequence (Q02108 whole entry): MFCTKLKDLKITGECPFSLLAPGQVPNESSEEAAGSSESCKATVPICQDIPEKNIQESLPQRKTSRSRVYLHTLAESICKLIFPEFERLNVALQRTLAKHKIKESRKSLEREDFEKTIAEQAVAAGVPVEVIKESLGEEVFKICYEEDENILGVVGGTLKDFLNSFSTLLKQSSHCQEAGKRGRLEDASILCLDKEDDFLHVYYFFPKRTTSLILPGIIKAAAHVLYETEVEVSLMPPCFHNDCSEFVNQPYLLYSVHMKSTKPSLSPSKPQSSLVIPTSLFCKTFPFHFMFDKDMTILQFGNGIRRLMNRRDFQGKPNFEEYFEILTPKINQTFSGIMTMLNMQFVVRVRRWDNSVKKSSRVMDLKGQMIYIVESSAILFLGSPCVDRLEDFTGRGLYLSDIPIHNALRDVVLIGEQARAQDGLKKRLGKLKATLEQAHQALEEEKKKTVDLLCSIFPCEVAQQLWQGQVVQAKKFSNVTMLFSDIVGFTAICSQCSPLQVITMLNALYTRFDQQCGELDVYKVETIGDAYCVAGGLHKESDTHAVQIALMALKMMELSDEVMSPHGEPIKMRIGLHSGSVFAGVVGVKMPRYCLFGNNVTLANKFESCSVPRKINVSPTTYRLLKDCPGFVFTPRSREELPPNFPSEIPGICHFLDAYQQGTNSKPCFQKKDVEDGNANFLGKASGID
assay-comment: sGC-HEK-cGMP assay, new protocol with DETA-NONOate, LC/MS detection (Example 2C)
Type: cell-based
test-context: read-out: Absolute EC50 (uM) - binned

Challenge: Request body: readout EC50, system soluble guanylate cyclase (sGC) (Homo sapiens (Human), UniProt Q02108+Q02153), query O=C1C=C(O)CC(C(=O)Nc2ccnc(-c3cc(-c4ccon4)n(Cc4ccccc4F)n3)n2)C1 (centres unmarked) . Return the value.
Response given: > 1 µM

Challenge: // repeat for OCC(O)(CCl)CNc1nc(-c2cc(-c3ccon3)n(Cc3ccccc3F)n2)ncc1F (centres unmarked) and report
Response given: < 0.1 µM

Challenge: // repeat for `OC1(CNc2nc(-c3cc(-c4ccon4)n(Cc4ccccc4F)n3)ncc2F)CNC1` and report
Response given: > 1 µM

Challenge: // repeat for `Fc1ccccc1Cn1nc(-c2ncc(F)c(N3CCc4[nH]nc(C(F)(F)F)c4C3)n2)cc1-c1ccon1` and report
Response given: > 1 µM

Challenge: // repeat for `O=C(Nc1ccnc(-c2cc(-c3ccon3)n(Cc3ccccc3F)n2)n1)c1cccc(=O)[nH]1` and report
Response given: > 1 µM

---

system: soluble guanylate cyclase (sGC) (Homo sapiens (Human), UniProt Q02108+Q02153)
assay-comment: sGC-HEK-cGMP assay, new protocol with DETA-NONOate, LC/MS detection (Example 2C)
Assay type: cell-based
test-context: read-out: Absolute EC50 (uM) - binned
measurement-kind: EC50

Challenge: Which value of EC50 has been reported for NC(=O)[C@](O)(CNc1nc(-c2cc(-c3ccon3)n(Cc3ccccc3F)n2)ncc1F)C(F)(F)F [Compound I-531] in the records?
Response given: < 0.1 µM

Challenge: // repeat for O=S(=O)(O)C1CCN(c2nc(-c3cc(-c4ccon4)n(Cc4ccccc4F)n3)ncc2F)CC1 [Compound I-363] and report
Response given: > 1 µM

Challenge: // repeat for O=C(Cc1ccccc1)NCC(=O)Nc1ccnc(-c2cc(-c3ccon3)n(Cc3ccccc3F)n2)n1 [Compound I-597] and report
Response given: > 1 µM

Challenge: // repeat for Fc1ccccc1Cn1nc(-c2ncc(F)c(NCC3(c4ncc[nH]4)CC3)n2)cc1-c1ccon1 [Compound I-567] and report
Response given: > 1 µM

Challenge: // repeat for O=C(CNC(=O)OCc1ccccc1)Nc1ccnc(-c2cc(-c3ccon3)n(Cc3ccccc3F)n2)n1 [Compound I-598] and report
Response given: > 1 µM

Challenge: // repeat for O[C@@H]1CN(c2nc(-c3cc(-c4ccon4)n(Cc4ccccc4F)n3)ncc2F)CC[C@@H]1O [Compound I-350] and report
Response given: < 0.1 µM

Challenge: // repeat for C[C@H](O)C(=O)Nc1ccnc(-c2cc(-c3ccon3)n(Cc3ccccc3F)n2)n1 [Compound I-576] and report
Response given: 0.101 to 1 µM

Challenge: // repeat for O=C(NC1CC1)C(Nc1nc(-c2cc(-c3ccon3)n(Cc3ccccc3F)n2)ncc1F)C(F)(F)F (stereo not shown) [Compound I-493] and report
Response given: 0.101 to 1 µM

Challenge: // repeat for OCC(Nc1nc(-c2cc(-c3ccon3)n(Cc3ccccc3F)n2)ncc1F)C(F)(F)F (stereo not shown) [Compound I-404] and report
Response given: 0.101 to 1 µM

Challenge: // repeat for O=C(Nc1nc(-c2cc(-c3ccon3)n(Cc3ccccc3F)n2)ncc1F)C1(C(F)(F)F)CC1 [Compound I-415] and report
Response given: > 1 µM

Challenge: // repeat for O=C(NC1CN(c2nc(-c3cc(-c4ccon4)n(Cc4ccccc4F)n3)ncc2F)C1)C1(O)CC1 [Compound I-440] and report
Response given: 0.101 to 1 µM

Challenge: // repeat for O=S(=O)(Cc1ccc(F)cc1)Nc1nc(-c2cc(-c3ccon3)n(Cc3ccccc3F)n2)ncc1F [Compound I-607] and report
Response given: 0.101 to 1 µM

Challenge: // repeat for CC(O)CN(CC(C)O)c1nc(-c2cc(-c3ccon3)n(Cc3ccccc3F)n2)ncc1F (stereo not shown) [Compound I-431] and report
Response given: < 0.1 µM

Challenge: // repeat for OC[C@@H]1[C@H](O)CCN1c1nc(-c2cc(-c3ccon3)n(Cc3ccccc3F)n2)ncc1F [Compound I-430] and report
Response given: < 0.1 µM

Challenge: // repeat for O=C(Nc1ccnc(-c2cc(-c3ccon3)n(Cc3ccccc3F)n2)n1)[C@H](O)C(F)(F)F [Compound I-326] and report
Response given: 0.101 to 1 µM

Challenge: // repeat for NS(=O)(=O)Nc1ccnc(-c2cc(-c3ccon3)n(Cc3ccccc3F)n2)n1 [Compound I-456] and report
Response given: 0.101 to 1 µM

Challenge: // repeat for O=S(=O)(CCNc1nc(-c2cc(-c3ccon3)n(Cc3ccccc3F)n2)ncc1F)C(F)(F)F [Compound I-514] and report
Response given: < 0.1 µM

Challenge: // repeat for CNC(=O)C(C)(O)CN(C)c1nc(-c2cc(-c3ccon3)n(Cc3ccccc3F)n2)ncc1F (stereo not shown) [Compound I-382] and report
Response given: < 0.1 µM

Challenge: // repeat for O=C(O)[C@H]1CCC[C@@H](Nc2nc(-c3cc(-c4ccon4)n(Cc4ccccc4F)n3)ncc2F)C1 [Compound I-380] and report
Response given: < 0.1 µM

---

I'd appreciate it if you could supply EC50 values for the items below.
system: soluble guanylate cyclase (sGC) (Homo sapiens (Human), UniProt Q02108+Q02153)
assay-comment: sGC-HEK-cGMP assay, new protocol with DETA-NONOate, LC/MS detection (Example 2C)
Type: cell-based
test-context: read-out: Absolute EC50 (uM) - binned

Challenge: Which value of EC50 has been reported for O=S(=O)(CCNc1nc(-c2cc(-c3ccon3)n(Cc3ccccc3F)n2)ncc1F)NO [Compound I-432] in the records?
Response given: < 0.1 µM

Challenge: // repeat for Cc1cc(-c2ncc(F)c(N(C)CC3(C(=O)O)CC3)n2)nn1Cc1ccccc1F [Compound I-411] and report
Response given: 0.101 to 1 µM

Challenge: // repeat for O=C1OCC(C(F)(F)F)N1c1ccnc(-c2cc(-c3ccon3)n(Cc3ccccc3F)n2)n1 (stereo not shown) [Compound I-504] and report
Response given: > 1 µM

Challenge: // repeat for CCOC(=O)C1=C(O)CN(c2nc(-c3cc(-c4ccon4)n(Cc4ccccc4F)n3)ncc2F)CC1 [Compound I-378] and report
Response given: < 0.1 µM

Challenge: // repeat for COC(=O)NCC(=O)Nc1ccnc(-c2cc(-c3ccon3)n(Cc3ccccc3F)n2)n1 [Compound I-603] and report
Response given: 0.101 to 1 µM

Challenge: // repeat for CC(=O)c1cc(-c2ncc(F)c(N3CCC[C@H](C)[C@@H]3C(=O)O)n2)nn1Cc1ccccc1F [Compound I-463] and report
Response given: 0.101 to 1 µM

Challenge: // repeat for O=C(Nc1ccnc(-c2cc(-c3ccon3)n(Cc3ccccc3F)n2)n1)c1cccs1 [Compound I-561] and report
Response given: > 1 µM

Challenge: // repeat for COCCS(=O)(=O)Nc1nc(-c2cc(-c3ccon3)n(Cc3ccccc3F)n2)ncc1F [Compound I-446] and report
Response given: > 1 µM

Challenge: // repeat for CCOCC(=O)Nc1ccnc(-c2cc(-c3ccon3)n(Cc3ccccc3F)n2)n1 [Compound I-562] and report
Response given: 0.101 to 1 µM

Challenge: // repeat for O=C(NS(=O)(=O)C1CCN(c2nc(-c3cc(-c4ccon4)n(Cc4ccccc4F)n3)ncc2F)CC1)C1CC1 [Compound I-425] and report
Response given: < 0.1 µM

Challenge: // repeat for O=C1Nc2nc(-c3cc(-c4ccon4)n(Cc4ccccc4F)n3)ncc2OC1(C(F)(F)F)C(F)(F)F [Compound I-492] and report
Response given: 0.101 to 1 µM

Challenge: // repeat for NC(=O)C1(Nc2nc(-c3cc(-c4ccon4)n(Cc4ccccc4F)n3)ncc2F)CC1 [Compound I-538] and report
Response given: < 0.1 µM

Challenge: // repeat for O=C(CN1C(=O)c2ccccc2C1=O)Nc1ccnc(-c2cc(-c3ccon3)n(Cc3ccccc3F)n2)n1 [Compound I-596] and report
Response given: > 1 µM

Challenge: // repeat for [2H]C([2H])(O)C([2H])([2H])Nc1nc(-c2cc(-c3ccon3)n(Cc3ccccc3F)n2)ncc1F [Compound I-495] and report
Response given: < 0.1 µM

Challenge: // repeat for O[C@@H]1Cc2ccccc2[C@@H]1Nc1nc(-c2cc(-c3ccon3)n(Cc3ccccc3F)n2)ncc1F [Compound I-395] and report
Response given: < 0.1 µM

Challenge: // repeat for CS(=O)(=O)NCCC(Nc1nc(-c2cc(-c3ccon3)n(Cc3ccccc3F)n2)ncc1F)C(F)(F)F (stereo not shown) [Compound I-544] and report
Response given: < 0.1 µM
